Measured values drawn from patent US20240360126A1 for this set.

target: TLR9 (Homo sapiens); experiment: Human PBMC cell-based assay; set-up: These cells express TLR7, TLR8, or TLR9, and therefore are natural responders to respective ligand stimulation; endogenous in cells; host or cells: human PBMC from healthy donor whole blood; conditions: CpG ODN 2216 at 1 μM, read-out: hPBMC/TLR9 IC50
Sequence (Q9NR96 26-1032): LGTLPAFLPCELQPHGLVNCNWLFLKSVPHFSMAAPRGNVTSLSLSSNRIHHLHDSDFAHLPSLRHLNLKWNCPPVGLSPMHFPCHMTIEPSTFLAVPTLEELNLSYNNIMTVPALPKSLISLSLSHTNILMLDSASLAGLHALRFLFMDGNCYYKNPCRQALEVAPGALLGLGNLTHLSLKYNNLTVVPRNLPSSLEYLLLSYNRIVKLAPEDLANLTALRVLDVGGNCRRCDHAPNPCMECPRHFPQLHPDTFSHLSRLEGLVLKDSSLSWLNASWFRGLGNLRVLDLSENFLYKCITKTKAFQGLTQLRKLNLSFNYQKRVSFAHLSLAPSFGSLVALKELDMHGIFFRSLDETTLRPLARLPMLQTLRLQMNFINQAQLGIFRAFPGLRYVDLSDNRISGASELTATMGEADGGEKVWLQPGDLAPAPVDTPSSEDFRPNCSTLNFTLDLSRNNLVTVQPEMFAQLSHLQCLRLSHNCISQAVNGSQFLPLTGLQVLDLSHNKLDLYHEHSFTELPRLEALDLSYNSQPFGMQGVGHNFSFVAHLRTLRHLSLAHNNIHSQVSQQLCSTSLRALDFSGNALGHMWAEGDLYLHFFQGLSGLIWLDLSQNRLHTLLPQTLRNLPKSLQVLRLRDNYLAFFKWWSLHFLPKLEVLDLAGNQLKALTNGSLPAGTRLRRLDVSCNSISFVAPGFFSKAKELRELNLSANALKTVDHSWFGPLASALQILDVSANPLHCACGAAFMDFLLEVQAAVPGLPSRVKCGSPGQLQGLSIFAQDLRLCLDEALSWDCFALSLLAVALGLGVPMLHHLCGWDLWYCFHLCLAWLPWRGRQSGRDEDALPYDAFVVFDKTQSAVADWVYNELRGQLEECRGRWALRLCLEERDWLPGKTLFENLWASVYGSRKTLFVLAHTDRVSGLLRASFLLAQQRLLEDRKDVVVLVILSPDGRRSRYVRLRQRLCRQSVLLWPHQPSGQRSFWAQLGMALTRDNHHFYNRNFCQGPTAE
endpoint: IC50 (µM)
Write the value in µM as a bare number.

Known IC50 results, listed for orientation:
1. Cc1cc(N2CC[C@@H](c3ncc(N4CCOC[C@@H](N)C4)cc3C)[C@H](C)C2)c2cnn(C)c2n1; 0.52
2. Cc1cc(N2CC[C@H](c3ccc(N4CC(C)(N)C4)cn3)[C@@H](C)C2)c2cnn(C)c2n1; 0.47
3. Cc1cc(N2CCNCC2)ncc1C1CCN(c2ccnc3c2cnn3C)CC1; 0.617
4. Cc1cc(N2CCC(c3cnc(N4CCNCC4)cc3C)[C@H](C)C2)c2cnn(C)c2n1 (single isomer, unassigned); 0.848
5. Cc1cc(N2CC[C@@H](c3ncc(N4C[C@H]5NCCO[C@@H]5C4)cc3C)[C@H](C)C2)c2cnn(C)c2n1; 0.146
6. Cc1cc(N2CCC(c3ncc(N4CCNCC4)cc3C)CC2)c2cnn(C)c2n1; 0.42
7. Cc1cc(N2CC[C@@H](c3ncc(N4CCNC5(CC5)C4)cc3C)[C@H](C)C2)c2cnn(C)c2n1; 0.78
8. CO[C@@H]1CN(c2cnc([C@@H]3CCN(c4cc(C)nc5c4cnn5C)C[C@H]3C)c(C)c2)C[C@H]1N; 0.33
9. Cc1cc(N2CCC(c3ccc(N4CCNCC4)cn3)CC2)c2cnn(C)c2n1; 0.47
10. Cc1cc(N2CCC(c3ncc(N4CCNCC4)cc3C)[C@H](C)C2)c2cnn(C)c2n1 (single isomer, unassigned); 0.32

stdin: Give the measured IC50 for Cc1cc(N2CC[C@@H](c3ncc(N4CC(C)(N)C4)cc3C)[C@H](C)C2)c2cnn(C)c2n1
stdout: 0.32

stdin: Provide only the value of recorded IC50 for Cc1cc(N2CC[C@@H](c3ncc(N4CC[C@@H](N)[C@H](F)C4)cc3C)[C@H](C)C2)c2cnn(C)c2n1
stdout: 0.41

stdin: Using known records, supply IC50 for Cc1cc(N2CC[C@@H](c3ncc(N4CC5(CNCCO5)C4)cc3C)[C@H](C)C2)c2cnn(C)c2n1
stdout: 0.38

###

experiment: 3T3 in vitro phototoxicity assay (Neutral Red uptake); assay type: cell-based, mouse; conditions: mouse, Balb/c 3T3 mouse fibroblasts (clone A 31, ATCC CCL 163); approx. 5 J/cm^2 UVA light
Catalogue of IC50 at 1 h readings, one per entry.

1) Cc1cc(N2CC[C@H](c3ccc(N4CCOC[C@@H](N)C4)cn3)[C@@H](C)C2)c2cnn(C)c2n1; > 120 µg/mL

stdin: Dear colleague, please send me the reported IC50 at 1 h for Cc1cc(N2CC[C@@H](c3ncc(N4CCOC[C@@H](N)C4)cc3C)[C@H](C)C2)c2cnn(C)c2n1 when you can.
stdout: > 120 µg/mL

###

Experiment: Human microsome stability assay
Type: in vitro ADME
Conditions: 1 μM test compound, 0.5 mg/mL liver microsomal protein, 37° C.
Description: The human microsomal stability assay is used for early assessment of metabolic stability of a test compound in human liver microsomes. […] The final incubation mixtures contained 1 μM test compound, 0.5 mg/mL liver microsomal protein, 1 mM MgCl2, 1 mM NADP, 1 unit/mL isocitric dehydrogenase and 6 mM isocitric acid in 100 mM potassium phosphate buffer, pH 7.4. […] Following precipitation and centrifugation, the amount of compound remaining in the samples were determined by LC-MS/MS. […]
Quick rule: Clearance of Human microsome of at least 8 mL/min/kg means Satisfied, below that means Not satisfied.

Completed entries (count: 5):
1) Cc1cc(N2CCNCC2)ncc1C1CCN(c2ccnc3c2cnn3C)CC1 [Example 6]; Satisfied
2) CO[C@H]1CN(c2ccc([C@H]3CCN(c4cc(C)nc5c4cnn5C)C[C@@H]3C)nc2)CC[C@@H]1N [Example 39]; Not satisfied
3) Cc1cc(N2CC[C@@H](c3ncc(N4CCOC[C@@H](N)C4)cc3C)[C@H](C)C2)c2cnn(C)c2n1 [Example 28]; Not satisfied
4) Cc1cc(N2CCNCC2)cnc1C1CCN(c2ccnc3c2cnn3C)CC1 [Example 5]; Satisfied
5) Cc1cc(N2CCC(c3cnc(N4CCNCC4)cn3)CC2)c2cnn(C)c2n1 [Example 3]; Satisfied

stdin: Can C[C@@H]1CN(c2ccnc3c2cnn3C)CC[C@H]1c1ccc(N2CCNCC2)nc1 (relative stereo) [Example 19] be said to have Clearance of Human microsome at or above 8 mL/min/kg?
stdout: Not satisfied

stdin: Answer whether Clearance of Human microsome of Cc1cc(N2CC[C@@H](c3ncc(N4C[C@H]5NCCO[C@@H]5C4)cc3C)[C@H](C)C2)c2cnn(C)c2n1 [Example 33] is greater than or equal to 8 mL/min/kg.
stdout: Not satisfied

stdin: I'd appreciate it if you could say whether Cc1cc(N2CCc3c(c(C)nn3CC34CCC(N(C)C5CCC5)(CC3)CC4)C2)c2cnn(C)c2n1 [Example N79, reference compound] has Clearance of Human microsome at least equal to 8 mL/min/kg.
stdout: Satisfied
